- target-or-test-system: T1, Human ANGPTL4(26-406)-FLAG-His6-Avi (human, UniProt Q9BY76 24-406, biotin on the C-terminal Avi tag in the biotinylated preparations (immobilised form in SET, ELISA and Octet))
- T1 construct: also called full-length human ANGPTL4; hANGPTL4
- T1 sequence: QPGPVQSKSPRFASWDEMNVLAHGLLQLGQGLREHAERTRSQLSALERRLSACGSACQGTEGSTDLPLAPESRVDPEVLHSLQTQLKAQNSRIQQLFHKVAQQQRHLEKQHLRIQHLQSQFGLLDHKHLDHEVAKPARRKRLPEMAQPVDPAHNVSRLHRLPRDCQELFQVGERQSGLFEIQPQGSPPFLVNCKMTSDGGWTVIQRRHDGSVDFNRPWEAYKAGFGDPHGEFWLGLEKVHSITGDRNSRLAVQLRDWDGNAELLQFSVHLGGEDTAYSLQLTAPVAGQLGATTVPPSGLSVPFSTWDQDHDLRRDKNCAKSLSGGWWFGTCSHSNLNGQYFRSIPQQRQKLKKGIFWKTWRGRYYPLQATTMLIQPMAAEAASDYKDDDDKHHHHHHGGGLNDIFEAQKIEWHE
- method-summary: ForteBio Octet, biotinylated antigen on streptavidin sensor, antibody in solution
# Lookup of reported Kd keyed by entry
Please state the figure in nM; there is no need to write the unit.

| binder | Kd [nM] |
| --- | --- |
| MOR021823 (antibody, human IgG1, kappa, V domains shown, human IgG1) VH: QVQLLESGGGLVQPGGSLRLSCAASGFTFSSYYLHWVRQAPGKGLEWVSYISGDGSSTYYADSVKGRFTISRDNSKNTLYLQMNSLRAEDTAVYYCARERSYAHDHWGQGTLVTVSS VL: DIQMTQSPSSLSASVGDRVTITCRASQDIYIDLNWYQQKPGKAPKLLIYAASKLQSGVPSRFSGSGSGTDFTLTISSLQPEDFATYYCQQGYFLPQTFGQGTKVEIKR | 0.047 |
| MOR021795 (antibody, human IgG1, lambda, V domains shown, human IgG1) VH: QVQLVQSGAEVKKPGSSVKVSCKASGGTFNSYAISWVRQAPGQGLEWMGGIIPLFGFANYAQKFQGRVTITADESTSTAYMELSSLRSEDTAVYYCARESYDPYAFDVWGQGTLVTVSS VL: DIELTQPPSVSVSPGQTASITCSGDNLGKYSASWYQQKPGQAPVLVIHQDNNRPSGIPERFSGSNSGNTATLTISGTQAEDEADYYCASRAHSMHVVFGGGTKLTVLG | 0.304 |

Below: the item to evaluate.
Find the recorded Kd belonging to MOR021830 (antibody, human IgG1, kappa, V domains shown, human IgG1) VH: QVQLLESGGGLVQPGGSLRLSCAASGFTFSSYWMHWVRQAPGKGLEWVSGISYDGSSTNYADSVKGRFTISRDNSKNTLYLQMNSLRAEDTAVYYCARDSYIYDLHWGFDNWGQGTLVTVSS VL: DIQMTQSPSSLSASVGDRVTITCRASQDISSYLNWYQQKPGKAPKLLIYAASRLQSGVPSRFSGSGSGTDFTLTISSLQPEDFATYYCQQSYTHPYTFGQGTKVEIKR and report it.
0.069
